Numbers sourced from the kinase profiling compilation of Christmann-Franck et al. (2016).

Listed here: items and their measured kinase still bound, per cent of control.
Target: DYRK1B (human)
Test: KINOMEscan competition binding
Settings: compound 10.0 µM
Give the value, in units of %, as a plain number.

For orientation, consider the following solved cases.
# COMPOUND, kinase still bound, per cent of control (%)
measured = [
    ("CNC(=O)Nc1ccc(-c2nc(N3CC4CCC(C3)O4)c3cnn(C4CCC5(CC4)OCCO5)c3n2)cc1", 100),
    ("N#Cc1cc(-c2ccnc(Nc3ccc(-n4cnc(-c5cccnc5)n4)cc3)n2)cc(N2CCOCC2)c1", 10),
    ("CCOc1cc(N2CCC(O)CC2)ccc1Nc1ncc2c(n1)N(C)c1ccccc1C(=O)N2C", 100),
]

Field request: kinase still bound, per cent of control | item: COc1cc2ncnc(Nc3cccc(Cl)c3)c2cc1OC
70

Another compound to look at: CC1=C(C(=O)Nc2cc3cn[nH]c3cc2F)C(c2ccc(C(F)(F)F)cc2)CC(=O)N1 (stereo not given)
84

====

Target: MYLK4 (human) (UniProt Q86YV6)
Sequence (Q86YV6 whole entry, looked up): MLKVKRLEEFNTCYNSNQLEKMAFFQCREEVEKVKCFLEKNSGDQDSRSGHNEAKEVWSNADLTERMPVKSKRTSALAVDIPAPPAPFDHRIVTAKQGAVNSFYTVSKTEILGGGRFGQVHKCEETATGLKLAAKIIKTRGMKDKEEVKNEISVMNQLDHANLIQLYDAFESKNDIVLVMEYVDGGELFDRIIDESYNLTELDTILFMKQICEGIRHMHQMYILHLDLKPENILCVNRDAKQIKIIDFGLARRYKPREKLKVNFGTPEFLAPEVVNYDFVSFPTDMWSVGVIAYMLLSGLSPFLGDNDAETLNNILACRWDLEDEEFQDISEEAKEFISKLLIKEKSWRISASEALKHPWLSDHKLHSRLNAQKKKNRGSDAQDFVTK
Assay: KINOMEscan competition binding
Settings: compound 10.0 µM
EXPERIMENTAL READOUT: kinase still bound, per cent of control (%)
Give the value, in units of %, as a plain number.

# COMPOUND, MEASURED VALUE
data = [
    ("CNC(=O)Nc1ccc(-c2nc(N3CC4CCC(C3)O4)c3cnn(C4CCC5(CC4)OCCO5)c3n2)cc1", 100),
    ("COc1cc(N2CCC(C(N)=O)CC2)ccc1Nc1nc(N)c(Cl)c(Nc2ccccc2S(=O)(=O)C(C)C)n1", 100),
    ("CC1=C(C(=O)Nc2cc3cn[nH]c3cc2F)C(c2ccc(C(F)(F)F)cc2)CC(=O)N1 (centres undefined)", 88),
]

# context switch: different compound, same kinase still bound, per cent of control
Field request: kinase still bound, per cent of control | item: CCOc1cc(N2CCC(O)CC2)ccc1Nc1ncc2c(n1)N(C)c1ccccc1C(=O)N2C
100

====

Molecular target: MAP2K7 (human)
Assay: KINOMEscan competition binding
Details: compound 10.0 µM
Label true when kinase still bound, per cent of control is strictly below 80%; at or above that, label false.

Study these solved cases before continuing.
# SMILES STRING, ASSIGNED CLASS
rows = [
    ("CCc1nc(-c2cccc(C)c2)c(-c2ccnc(NC(=O)c3ccccc3)c2)s1", "false"),
    ("C=CC(=O)Nc1ccc(C(=O)c2sc(Nc3ccc(N4CCN(C)CC4)cc3OC)nc2N)cc1", "false"),
    ("CCN(CCO)CCCOc1ccc2c(Nc3cc(CC(=O)Nc4cccc(F)c4)[nH]n3)ncnc2c1", "false"),
    ("COc1cc2ncnc(Nc3cccc(Cl)c3)c2cc1OC", "true"),
]

Consider now this further compound.
Does the reported kinase still bound, per cent of control of the following compound sit strictly below 80%? N#Cc1cc(-c2ccnc(Nc3ccc(-n4cnc(-c5cccnc5)n4)cc3)n2)cc(N2CCOCC2)c1
false

====

Listed here: items and their measured kinase still bound, per cent of control.
Target: UniProt Q9Y6R4
Sequence (Q9Y6R4 whole entry, looked up): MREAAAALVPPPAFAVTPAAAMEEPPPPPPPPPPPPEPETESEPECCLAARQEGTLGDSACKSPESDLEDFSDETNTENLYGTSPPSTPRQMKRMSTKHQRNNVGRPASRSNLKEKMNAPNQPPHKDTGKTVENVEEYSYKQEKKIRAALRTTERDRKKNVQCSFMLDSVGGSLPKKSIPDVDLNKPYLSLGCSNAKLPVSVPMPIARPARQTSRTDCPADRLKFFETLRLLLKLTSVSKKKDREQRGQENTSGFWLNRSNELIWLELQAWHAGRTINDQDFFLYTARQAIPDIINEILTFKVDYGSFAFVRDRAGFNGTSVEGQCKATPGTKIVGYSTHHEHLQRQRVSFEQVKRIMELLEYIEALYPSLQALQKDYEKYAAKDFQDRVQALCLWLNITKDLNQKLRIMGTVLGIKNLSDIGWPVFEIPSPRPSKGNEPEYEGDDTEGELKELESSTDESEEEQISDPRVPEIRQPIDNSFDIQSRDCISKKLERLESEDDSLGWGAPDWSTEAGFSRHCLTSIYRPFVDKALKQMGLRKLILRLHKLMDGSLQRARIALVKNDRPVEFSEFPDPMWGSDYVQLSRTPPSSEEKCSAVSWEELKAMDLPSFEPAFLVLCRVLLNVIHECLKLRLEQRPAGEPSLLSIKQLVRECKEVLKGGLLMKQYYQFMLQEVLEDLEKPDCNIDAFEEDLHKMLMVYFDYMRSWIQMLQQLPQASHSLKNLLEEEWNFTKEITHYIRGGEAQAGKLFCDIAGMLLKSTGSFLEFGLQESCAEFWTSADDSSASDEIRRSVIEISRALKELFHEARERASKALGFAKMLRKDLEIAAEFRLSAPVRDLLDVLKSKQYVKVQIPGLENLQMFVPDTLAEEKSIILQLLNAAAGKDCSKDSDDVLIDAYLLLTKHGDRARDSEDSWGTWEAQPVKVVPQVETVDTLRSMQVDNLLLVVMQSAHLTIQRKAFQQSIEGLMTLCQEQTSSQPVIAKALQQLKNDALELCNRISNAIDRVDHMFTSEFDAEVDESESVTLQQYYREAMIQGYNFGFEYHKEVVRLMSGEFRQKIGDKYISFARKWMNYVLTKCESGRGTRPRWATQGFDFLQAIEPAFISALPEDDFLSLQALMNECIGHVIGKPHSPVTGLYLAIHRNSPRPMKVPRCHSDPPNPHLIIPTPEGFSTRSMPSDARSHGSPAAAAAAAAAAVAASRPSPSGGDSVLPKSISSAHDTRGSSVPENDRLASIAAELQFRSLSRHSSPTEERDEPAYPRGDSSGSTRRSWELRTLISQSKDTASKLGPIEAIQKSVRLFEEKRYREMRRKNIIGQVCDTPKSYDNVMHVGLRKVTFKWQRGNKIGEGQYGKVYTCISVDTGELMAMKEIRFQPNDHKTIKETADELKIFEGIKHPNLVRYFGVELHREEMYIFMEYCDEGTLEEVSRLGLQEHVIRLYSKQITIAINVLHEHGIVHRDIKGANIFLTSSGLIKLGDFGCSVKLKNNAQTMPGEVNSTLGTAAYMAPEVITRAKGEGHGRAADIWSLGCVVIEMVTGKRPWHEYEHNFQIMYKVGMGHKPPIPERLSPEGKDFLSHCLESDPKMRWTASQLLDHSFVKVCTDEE
Assay: KINOMEscan competition binding
Details: compound 10.0 µM
Give the value, in units of %, as a plain number.

For orientation, consider the following solved cases.
# COMPOUND, EXPERIMENTAL READOUT, MEASURED VALUE
rows = [
    ("O=c1[nH]c2ccccc2n1C1CCN(Cc2ccc(-c3nc4cc5[nH]cnc5cc4nc3-c3ccccc3)cc2)CC1", "kinase still bound, per cent of control", 78),
    ("N#C/C(=C1/Nc2ccccc2S1)c1ccnc(NCCc2cccnc2)n1", "kinase still bound, per cent of control", 100),
    ("CCN(CCO)CCCOc1ccc2c(Nc3cc(CC(=O)Nc4cccc(F)c4)[nH]n3)ncnc2c1", "kinase still bound, per cent of control", 90),
    ("COc1ccc(N(C(=O)Oc2cc(C(=O)Nc3cccc(C(F)(F)F)c3)ccc2C)c2ccnc(Nc3ccc(N4CCN(C)CC4)cc3)n2)c(OC)c1", "kinase still bound, per cent of control", 100),
]

Field request: kinase still bound, per cent of control | item: COc1cc2c(Nc3ccc(NC(=O)c4ccccc4)cc3)ncnc2cc1OCCCN1CCOCC1
62

Another compound to look at: CC1=C(C(=O)Nc2cc3cn[nH]c3cc2F)C(c2ccc(C(F)(F)F)cc2)CC(=O)N1 (centres undefined)
97

Another compound to look at: Cc1cn(-c2cc(C(=O)Nc3ccc(C)c(NC(=O)c4ccno4)c3)cc(C(F)(F)F)c2)cn1
100

Another compound to look at: CCc1nc(-c2cccc(C)c2)c(-c2ccnc(NC(=O)c3ccccc3)c2)s1
85

Another compound to look at: CCCS(=O)(=O)Nc1ccc(F)c(C(=O)c2c[nH]c3ncc(Cl)cc23)c1F
92

====

Tested on: FGFR3 (human), P22607 [G697C]
Sequence (P22607 whole entry G697C, looked up): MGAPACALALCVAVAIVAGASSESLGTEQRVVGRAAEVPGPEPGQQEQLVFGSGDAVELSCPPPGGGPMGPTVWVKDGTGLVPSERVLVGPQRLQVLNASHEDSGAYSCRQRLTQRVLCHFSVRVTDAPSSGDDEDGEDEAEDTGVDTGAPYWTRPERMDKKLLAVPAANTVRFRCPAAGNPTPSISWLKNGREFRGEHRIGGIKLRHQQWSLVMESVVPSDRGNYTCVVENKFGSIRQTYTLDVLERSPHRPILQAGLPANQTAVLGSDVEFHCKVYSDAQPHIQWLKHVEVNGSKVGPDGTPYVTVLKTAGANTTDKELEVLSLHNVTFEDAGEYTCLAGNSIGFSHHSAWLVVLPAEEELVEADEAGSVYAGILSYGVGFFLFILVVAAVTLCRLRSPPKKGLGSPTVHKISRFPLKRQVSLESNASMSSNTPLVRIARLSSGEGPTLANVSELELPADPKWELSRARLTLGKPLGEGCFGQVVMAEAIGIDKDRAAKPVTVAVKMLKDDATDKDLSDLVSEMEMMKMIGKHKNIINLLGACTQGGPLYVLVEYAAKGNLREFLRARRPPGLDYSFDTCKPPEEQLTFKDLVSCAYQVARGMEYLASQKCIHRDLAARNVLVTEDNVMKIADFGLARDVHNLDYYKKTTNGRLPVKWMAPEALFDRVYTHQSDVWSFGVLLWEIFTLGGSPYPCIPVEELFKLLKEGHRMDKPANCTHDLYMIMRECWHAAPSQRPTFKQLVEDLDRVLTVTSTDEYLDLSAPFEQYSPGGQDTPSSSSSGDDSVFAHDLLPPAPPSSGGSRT
Assay: KINOMEscan competition binding
Conditions: compound 10.0 µM
Label yes (1) when kinase still bound, per cent of control is strictly below 90%; at or above that, label no (0).

Study these solved cases before continuing.
# SMILES STRING, ASSAY SYSTEM, ASSIGNED CLASS
rows = [
    ("CCc1nc(-c2cccc(C)c2)c(-c2ccnc(NC(=O)c3ccccc3)c2)s1", "FGFR3 (human), P22607 [G697C]", "no (0)"),
    ("O=C(O)c1ccc(Nc2ncc3c(n2)-c2ccc(Cl)cc2C(c2c(F)cccc2F)=NC3)cc1", "FGFR3 (human), P22607 [G697C]", "yes (1)"),
    ("COc1cc(N2CCC(C(N)=O)CC2)ccc1Nc1nc(N)c(Cl)c(Nc2ccccc2S(=O)(=O)C(C)C)n1", "FGFR3 (human), P22607 [G697C]", "no (0)"),
]

Does the reported kinase still bound, per cent of control of the following compound sit strictly below 90%? C=CC(=O)Nc1cccc(Nc2nc(N[C@H]3CC[C@H](N(C)C)CC3)nc3c2ncn3C(C)C)c1
no (0)

Another compound to look at: CCN(CC)CCCCNc1ncc2c(n1)N(C)C(=O)N(c1c(Cl)c(OC)cc(OC)c1Cl)C2
yes (1)

====

Listed here: items and their measured kinase still bound, per cent of control.
Molecular target: MTOR (human) (UniProt P42345)
Test: KINOMEscan competition binding
Settings: compound 10.0 µM
Give the value, in units of %, as a plain number.

For orientation, consider the following solved cases.
# MOLECULE, EXPERIMENTAL READOUT, MEASURED VALUE
records = [
    ("CCCS(=O)(=O)Nc1ccc(F)c(C(=O)c2c[nH]c3ncc(Cl)cc23)c1F", "kinase still bound, per cent of control", 58),
    ("CCc1nc(-c2cccc(C)c2)c(-c2ccnc(NC(=O)c3ccccc3)c2)s1", "kinase still bound, per cent of control", 100),
]

Field request: kinase still bound, per cent of control | item: CC1=C(C(=O)Nc2cc3cn[nH]c3cc2F)C(c2ccc(C(F)(F)F)cc2)CC(=O)N1 (centres undefined)
89

Another molecule to look at: COc1cc2c(Nc3ccc(NC(=O)c4ccccc4)cc3)ncnc2cc1OCCCN1CCOCC1
70

====

Listed here: items and their measured kinase still bound, per cent of control.
Test system: FGFR3 (human), P22607 [G697C]
Test: KINOMEscan competition binding
Settings: compound 10.0 µM
Give the value, in units of %, as a plain number.

For orientation, consider the following solved cases.
# COMPOUND, MEASURED VALUE
rows = [
    ("COc1cc2c(Nc3ccc(NC(=O)c4ccccc4)cc3)ncnc2cc1OCCCN1CCOCC1", 100),
    ("C=CC(=O)Nc1ccc(C(=O)c2sc(Nc3ccc(N4CCN(C)CC4)cc3OC)nc2N)cc1", 77),
]

Field request: kinase still bound, per cent of control | item: C=CC(=O)Nc1ccc(CN(C(=O)Nc2c(Cl)c(OC)cc(OC)c2Cl)c2cc(Nc3ccc(N4CCN(C)CC4)cc3)ncn2)cc1
1.4

Another compound to look at: C=CC(=O)Nc1cccc(Oc2nc(Nc3ccc(N4CCN(C)CC4)cc3OC)ncc2Cl)c1
100

Another compound to look at: COc1cc(C(=O)N2CCC(N3CCN(C)CC3)CC2)ccc1Nc1ncc2c(n1)N(C)c1ccccc1C(=O)N2C
85

Another compound to look at: Cn1c(=O)n(-c2ccc(C(C)(C)C#N)cc2)c2c3cc(-c4cnc5ccccc5c4)ccc3ncc21
100

Another compound to look at: C=CC(=O)Nc1cc(NC(=O)c2ccc(C)c(NC(=O)c3ccno3)c2)cc(C(F)(F)F)c1
91

Another compound to look at: COc1cc(C)c(Sc2cnc(NC(=O)c3ccc(CNC(C)C(C)C)cc3)s2)cc1C(=O)N1CCN(C(C)=O)CC1 (stereo not drawn)
100

====

Molecular target: YES1 (human) (UniProt P07947)
Sequence (P07947 whole entry, looked up): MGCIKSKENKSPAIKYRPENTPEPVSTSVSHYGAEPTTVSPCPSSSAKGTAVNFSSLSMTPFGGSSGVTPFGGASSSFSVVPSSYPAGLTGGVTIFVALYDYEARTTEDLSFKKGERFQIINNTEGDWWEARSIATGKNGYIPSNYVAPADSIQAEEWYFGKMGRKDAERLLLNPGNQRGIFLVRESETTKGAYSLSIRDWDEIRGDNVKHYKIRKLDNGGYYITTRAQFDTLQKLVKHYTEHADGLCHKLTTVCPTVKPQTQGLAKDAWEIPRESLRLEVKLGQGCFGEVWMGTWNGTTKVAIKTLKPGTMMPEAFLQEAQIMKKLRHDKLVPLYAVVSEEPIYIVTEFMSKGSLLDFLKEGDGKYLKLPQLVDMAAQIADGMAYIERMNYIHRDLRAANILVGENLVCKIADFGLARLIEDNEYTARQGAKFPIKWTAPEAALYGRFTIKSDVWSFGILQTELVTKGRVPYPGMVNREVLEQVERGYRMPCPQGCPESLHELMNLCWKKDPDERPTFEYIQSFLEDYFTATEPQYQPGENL
Test: KINOMEscan competition binding
Details: compound 10.0 µM
Listed here: items and their measured kinase still bound, per cent of control.
Answer by giving the amount and then stating its unit.

For orientation, consider the following solved cases.
# SMILES STRING, kinase still bound, per cent of control
records = [
    ("Cc1cn(-c2cc(C(=O)Nc3ccc(C)c(NC(=O)c4ccno4)c3)cc(C(F)(F)F)c2)cn1", "13%"),
    ("CCN1CCN(Cc2ccc(NC(=O)c3ccc(C)c(/C=C/c4cnc5[nH]ccc5c4OC)c3)cc2C(F)(F)F)CC1", "0.65%"),
    ("CNC(=O)Nc1ccc(-c2nc(N3CC4CCC(C3)O4)c3cnn(C4CCC5(CC4)OCCO5)c3n2)cc1", "97%"),
    ("CCN(CCO)CCCOc1ccc2c(Nc3cc(CC(=O)Nc4cccc(F)c4)[nH]n3)ncnc2c1", "42%"),
    ("CCCS(=O)(=O)Nc1ccc(F)c(C(=O)c2c[nH]c3ncc(Cl)cc23)c1F", "18%"),
    ("CC(=O)c1c(C)c2cnc(Nc3ccc(N4CCNCC4)cn3)nc2n(C2CCCC2)c1=O", "83%"),
    ("N#C/C(=C1/Nc2ccccc2S1)c1ccnc(NCCc2cccnc2)n1", "81%"),
    ("COc1cc(N2CCC(C(N)=O)CC2)ccc1Nc1nc(N)c(Cl)c(Nc2ccccc2S(=O)(=O)C(C)C)n1", "100%"),
    ("COc1cc2ncnc(Nc3cccc(Cl)c3)c2cc1OC", "38%"),
]

# context switch: different compound, same kinase still bound, per cent of control
Find the measured kinase still bound, per cent of control: item O=c1[nH]c2ccccc2n1C1CCN(Cc2ccc(-c3nc4cc5[nH]cnc5cc4nc3-c3ccccc3)cc2)CC1 , target or system YES1 (human) (UniProt P07947).
100%
